Tested on: c-fos mRNA
Experiment: c-fos mRNA expression in TPA-induced A549 cells, Northern blotting
Format: cell-based, human
Details: Table 5; TPA - no oligo = 100, basal = 5; A549 cells
Strand notation (5' to 3'): a small letter for the sugar, then the base; units joined by * are phosphorothioate-linked, units joined directly phosphodiester-linked; [ ] holds rarer units or linkages, { } end groups; capitals alone tell only the bases. d = 2'-deoxy (DNA)
Assignment: determine reported c-fos (mRNA level, specificity experiment) for the given substances.
Give bare numbers.

I'm hoping you can list c-fos (mRNA level, specificity experiment) for every substance here, please.
1. ATG-TGC-TAG-ATG-CGC-AAA-GT (ATGTGCTAGATGCGCAAAGT; antisense; DNA, all phosphorothioate, methylation of C not given here) [ISIS 11185]
2. GCT-GTG-GGC-CTC-AAG-GAC-TT (GCTGTGGGCCTCAAGGACTT; antisense; DNA, all phosphorothioate, methylation of C not given here) [ISIS 11184]
3. TCA-GCC-CCC-GAC-GGT-CTC-TC (dT*dC*dA*dG*dC*dC*dC*dC*dC*dG*dA*dC*dG*dG*dT*dC*dT*dC*dT*dC; antisense) [ISIS 10582]

Marked response:
[93, 84, 91]

* * *

Assignment: determine reported c-jun mRNA % CONTROL for the given substances.
Tested on: c-jun mRNA
Experiment: c-jun mRNA expression in TPA-induced A549 cells, Northern blotting
Format: cell-based, human
Settings: 400 nM oligonucleotide with LIPOFECTIN; control is TPA induction, at 1 hour, in A549 cells
Description: In order to evaluate the activity of potential c-fos and c-jun modulating oligonucleotides, A549 cells were grown in T-75 flasks until 80-90% confluent. […] Cells were extracted in guanidinium one hour later, and the c-fos and c-jun mRNA expression was determined by Northern blotting. […]
Strand notation (5' to 3'): a small letter for the sugar, then the base; units joined by * are phosphorothioate-linked, units joined directly phosphodiester-linked; [ ] holds rarer units or linkages, { } end groups; capitals alone tell only the bases. d = 2'-deoxy (DNA)
One number for each entry, in % CONTROL.

Example cases with answers are listed next.
The substance ACC-AGC-CCG-GGA-GCC-ACA-GG (dA*dC*dC*dA*dG*dC*dC*dC*dG*dG*dG*dA*dG*dC*dC*dA*dC*dA*dG*dG; antisense) [ISIS 10572] showed c-jun mRNA % CONTROL equal to 39

The substance CCC-CCG-ACC-GTC-TCT-CTT-CA (dC*dC*dC*dC*dC*dG*dA*dC*dC*dG*dT*dC*dT*dC*dT*dC*dT*dT*dC*dA; antisense) [ISIS 10581] showed c-jun mRNA % CONTROL equal to 24

The substance TCA-GCC-CCC-GAC-GGT-CTC-TC (dT*dC*dA*dG*dC*dC*dC*dC*dC*dG*dA*dC*dG*dG*dT*dC*dT*dC*dT*dC; antisense) [ISIS 10582] showed c-jun mRNA % CONTROL equal to 17

I'm hoping you can list c-jun mRNA % CONTROL for every substance here, please.
1. CGC-CCC-GCC-GCC-GCT-GCT-CA (dC*dG*dC*dC*dC*dC*dG*dC*dC*dG*dC*dC*dG*dC*dT*dG*dC*dT*dC*dA; antisense) [ISIS 10579]
2. TGC-CCC-TCA-GCC-CCC-GAC-GG (dT*dG*dC*dC*dC*dC*dT*dC*dA*dG*dC*dC*dC*dC*dC*dG*dA*dC*dG*dG; antisense) [ISIS 10583]
3. CGC-ACC-TCC-ACT-CCC-GCC-TC (dC*dG*dC*dA*dC*dC*dT*dC*dC*dA*dC*dT*dC*dC*dC*dG*dC*dC*dT*dC; antisense) [ISIS 10571]

Marked response:
1: 41; 2: 20; 3: 100
